molecular target: hPIV-N51 (139-189) (human parainfluenza virus (hPIV))
Sequence (P06828 139-189): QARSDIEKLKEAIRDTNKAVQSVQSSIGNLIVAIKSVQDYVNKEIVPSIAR
For each of the binders below, state its pKd.
# pKd: negative log10 of molar concentration; output just the value

pKd reading for WDEFDKKIEEVNKKIEESLKKIEESDKKLHNVEAAAKK (modifications not checked) [Compound 44] : 5.16

pKd reading for YDELVFDASQVNEKINQSLEKIRKSDELLHNVEAAAKK (modifications not checked) [Compound 30] : 5.99

pKd reading for WDEFDASISQVNEKINQSLEEIRKSDELLHNVNAGLGSGSGK (modifications not checked) [Compound 27] : 6.09

pKd reading for WDEFDKKIEEVNKKIEESLKKIEESDKKLEEVNEAAAKK (modifications not checked) [Compound 41] : 6.31
